Some substances, each annotated with its measured pKd.
- TARGET_OF_ASSAY: TAF1(1/2), tandem bromodomains of TAF1 (human) (UniProt P21675)
- Sequence (P21675 whole entry): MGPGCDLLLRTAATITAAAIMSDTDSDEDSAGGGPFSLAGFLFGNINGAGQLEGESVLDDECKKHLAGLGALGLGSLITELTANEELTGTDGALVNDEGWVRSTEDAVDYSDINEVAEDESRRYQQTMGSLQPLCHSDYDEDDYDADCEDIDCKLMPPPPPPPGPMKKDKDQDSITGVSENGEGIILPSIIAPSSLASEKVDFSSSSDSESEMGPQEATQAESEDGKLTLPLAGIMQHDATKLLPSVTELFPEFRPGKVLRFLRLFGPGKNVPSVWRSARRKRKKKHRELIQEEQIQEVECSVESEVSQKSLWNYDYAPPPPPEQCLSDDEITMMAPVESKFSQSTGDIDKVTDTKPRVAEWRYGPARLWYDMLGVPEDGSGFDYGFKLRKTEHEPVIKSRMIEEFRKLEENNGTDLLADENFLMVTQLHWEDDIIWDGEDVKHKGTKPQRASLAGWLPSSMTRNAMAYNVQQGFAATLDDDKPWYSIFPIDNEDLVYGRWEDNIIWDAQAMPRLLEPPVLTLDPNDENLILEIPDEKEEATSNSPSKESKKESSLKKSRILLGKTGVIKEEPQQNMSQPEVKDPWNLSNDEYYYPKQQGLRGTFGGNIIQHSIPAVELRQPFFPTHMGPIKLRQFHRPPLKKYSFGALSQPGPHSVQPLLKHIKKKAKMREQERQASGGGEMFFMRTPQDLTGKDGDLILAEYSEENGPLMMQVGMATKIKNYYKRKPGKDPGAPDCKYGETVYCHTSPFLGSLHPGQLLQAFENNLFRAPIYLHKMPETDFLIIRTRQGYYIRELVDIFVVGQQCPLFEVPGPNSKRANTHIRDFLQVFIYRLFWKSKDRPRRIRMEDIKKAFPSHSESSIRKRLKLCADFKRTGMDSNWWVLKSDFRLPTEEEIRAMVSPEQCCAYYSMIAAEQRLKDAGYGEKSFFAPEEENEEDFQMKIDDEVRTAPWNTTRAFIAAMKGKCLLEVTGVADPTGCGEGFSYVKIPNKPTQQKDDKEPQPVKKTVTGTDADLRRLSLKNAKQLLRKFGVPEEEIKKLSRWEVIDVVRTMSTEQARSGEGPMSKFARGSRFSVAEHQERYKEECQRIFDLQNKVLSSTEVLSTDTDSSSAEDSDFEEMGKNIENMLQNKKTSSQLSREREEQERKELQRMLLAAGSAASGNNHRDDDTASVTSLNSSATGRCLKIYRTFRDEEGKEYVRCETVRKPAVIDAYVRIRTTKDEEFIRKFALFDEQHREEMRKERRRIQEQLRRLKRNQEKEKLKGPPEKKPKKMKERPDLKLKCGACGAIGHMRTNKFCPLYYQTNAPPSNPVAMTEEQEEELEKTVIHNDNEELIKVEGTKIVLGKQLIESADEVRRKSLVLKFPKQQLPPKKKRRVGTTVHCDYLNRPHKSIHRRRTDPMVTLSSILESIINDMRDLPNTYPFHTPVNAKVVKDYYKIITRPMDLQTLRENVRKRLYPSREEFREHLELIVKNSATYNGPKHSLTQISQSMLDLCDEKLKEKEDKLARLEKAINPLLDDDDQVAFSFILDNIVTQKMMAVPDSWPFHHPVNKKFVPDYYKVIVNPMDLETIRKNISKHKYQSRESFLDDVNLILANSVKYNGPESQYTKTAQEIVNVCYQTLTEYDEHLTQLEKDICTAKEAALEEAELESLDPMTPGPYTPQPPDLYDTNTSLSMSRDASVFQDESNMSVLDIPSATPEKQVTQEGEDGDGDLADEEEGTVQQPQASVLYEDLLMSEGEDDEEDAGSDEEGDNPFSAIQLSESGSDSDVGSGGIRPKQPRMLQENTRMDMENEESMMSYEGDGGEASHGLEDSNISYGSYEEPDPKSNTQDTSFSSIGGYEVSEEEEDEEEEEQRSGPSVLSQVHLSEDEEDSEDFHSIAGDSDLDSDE
- ASSAY_SUMMARY: ITC; peptide (mM stock) titrated into bromodomain (about 50 μM), by the concentrations in the tables; 10 or 15°C, 50 mM HEPES pH 7.5, 150 mM NaCl; single binding site model
pKd: −log10 of the molar value.
PROPERTY_LABEL: pKd

SUBSTANCE | PROPERTY_LABEL | NUMBER
H3K9/K14 peptide KQTARKacSTGGKacAPRKQY | pKd | 3.47
H3K14 peptide KSTGGKacAPRKQY | pKd | 3.75
H3K9/S10/K14 peptide KQTARKacpSTGGKacAPRKQY | pKd | 3.82

====

- TARGET_OF_ASSAY: TAF1(2), second bromodomain of TAF1 (human) (UniProt P21675)
- Sequence (P21675 whole entry): as above
- ASSAY_SUMMARY: ITC; peptide (mM stock) titrated into bromodomain (about 50 μM), by the concentrations in the tables; 10 or 15°C, 50 mM HEPES pH 7.5, 150 mM NaCl; single binding site model

SUBSTANCE | UNITS_LABEL | Kd
H3K14 peptide KSTGGKacAPRKQY | µM | 306

====

- TARGET_OF_ASSAY: BAZ2B bromodomain (human)
- ASSAY_SUMMARY: ITC; peptide (mM stock) titrated into bromodomain (about 50 μM), by the concentrations in the tables; 10 or 15°C, 50 mM HEPES pH 7.5, 150 mM NaCl; single binding site model

SUBSTANCE | Kd
H3K14 peptide KSTGGKacAPRKQY | 7.6 µM

====

- TARGET_OF_ASSAY: H3pS10K14acK18ac peptide (ITC) (human)
- ASSAY_SUMMARY: ITC; VP-ITC or ITC200, 10 or 15°C, 50 mM HEPES pH 7.5, 150 mM NaCl; in most cases single binding site model
pKd: −log10 of the molar value.

SUBSTANCE | pKd
bromodomain of CREBBP, tag removed (ITC) (from UniProt Q92793 1081-1197) (domain or fragment) | 3.88
